Tested on: UACC-257 melanoma
experiment.notes: NCI-60 one-dose screen, 48 h (100 = growth as untreated, 0 = no growth, -100 = all killed)
study.conditions: 10 µM unless noted
This is part of a sample that, as a whole, favours compounds with a hit. Of some 83,000 tested, about 20% had one in any assay.
Listed here are compounds together with their documented growth.
quantity: growth (%)

compound: Cn1ccnc1C(=O)C(=O)Nc1ccc(CC(=O)Nc2ccccc2)cc1
test.value: 110

compound: O=C(OCc1ccc2c(Cl)cc(Cl)c(O)c2n1)n1cncn1
test.value: 41.2

compound: COc1cccc([C@H]2c3[nH]c4ccccc4c3C[C@H]3C(=O)N(CCCCCCC(=O)NO)CC(=O)N23)c1
test.value: 51.6

compound: CC12CCC3c4ccccc4CCC3(CO1)C2 (stereo not given)
test.value: 110

compound: NC(=O)CCC(C(=O)O)N1C(=O)c2ccc(O)cc2C1=O (stereo not given)
test.value: 107

compound: COc1cc2c(c(OC)c1OC)CCC(c1cccc(C(=O)Nc3cccc(Br)c3)c1)O2 (stereo not given)
test.value: 74.1

compound: CCN(c1ccc(Cl)cc1)c1nc(-c2ccc([N+](=O)[O-])cc2)cs1
test.value: 104

compound: Cc1ccc(Cl)cc1Nc1nc(C(F)(F)F)ccc1C(=O)N/N=C/c1cccnc1
test.value: 28.2

compound: COC(=O)c1c2c(c[n+]([O-])c1C)C(=O)C(NCc1ccccc1)=CC2=O
test.value: -81.5

compound: CC1=Nc2cnc(Nc3ccc(OCCN4CCCC4)cc3)nc2Nc2ccccc21
test.value: 89.3

* * *

Test system: SN12C renal
experiment.notes: NCI-60 one-dose screen, 48 h (100 = growth as untreated, 0 = no growth, -100 = all killed)
study.conditions: 10 µM unless noted
Description: Growth inhibition of the SN12C human tumor cell line is measured as a screen for anti-cancer activity. Cells are grown in 96 well plates and exposed to the test compound for 48 hours. Compounds are tested at a single concentration, which is 10^-5 M for most compounds. The reported endpoint is percent growth (GI% or GIPRCNT), where numbers from 0 - 100% represent growth inhibition, and numbers from -100% - 0 represent cell death. For example, a value of 40 represents 60% growth inhibition. […]
This is part of a sample that, as a whole, favours compounds with a hit. Of some 83,000 tested, about 20% had one in any assay.
Listed here are compounds together with their documented growth.
quantity: growth (%)

compound: CS(=O)(=O)c1cccc(-c2c(-c3cccc(OS(N)(=O)=O)c3)nc3sccn23)c1
unit: %
test.value: 102
//
compound: O=C(Nn1c2c(sc1=NCc1ccccc1)C(=O)c1ccccc1C2=O)c1cc2ccc1CCc1ccc(cc1)CC2
unit: %
test.value: 61.8
//
compound: CC(C)(C)n1cc(-c2ccnc(NCCCNS(=O)(=O)c3ccc(F)cc3)c2)c(-c2cccc(F)c2)n1
unit: %
test.value: 66.5
//
compound: CN(C)CCCC1(c2ccc(F)cc2)OCc2cc(-c3cccc4[nH]ccc34)ccc21 (centres undefined)
unit: %
test.value: 48.3
//
compound: C=CCc1c(O)c(C(=O)/C=C/c2ccc(Cl)cc2)c(OC)c2ccoc12
unit: %
test.value: 57.2
//
compound: COc1ccc(/C=C2\C(=O)N=C3N2NC(c2cc(Br)ccc2O)C=C(C)N3c2ccccc2)cc1 (centres undefined)
unit: %
test.value: 97.6
//
compound: COC(=O)c1c2c(c(C)[n+]([O-])c1C)C(=O)C=C(NCc1ccc(Br)cc1)C2=O
unit: %
test.value: -77.7
//
compound: C#Cc1ccc(NC(=O)c2ccc(/C=C/C(=O)c3nccn3C)cc2)cc1
unit: %
test.value: -37.5
//
compound: COc1cc(-c2nc3cc(Cl)c(Cl)cc3[nH]2)ccc1OCC(=O)N=Nc1c(O)[nH]c2ccc([N+](=O)[O-])cc12
unit: %
test.value: 81.2

* * *

System: RPMI-8226 leukemia
experiment.notes: NCI-60 one-dose screen, 48 h (100 = growth as untreated, 0 = no growth, -100 = all killed)
study.conditions: 10 µM unless noted
This is part of a sample that, as a whole, favours compounds with a hit. Of some 83,000 tested, about 20% had one in any assay.
quantity: growth (%)

compound: COc1ccc(-c2csc(N(C(=O)N3CCN(c4cc5c(cc4F)c(=O)c(C(=O)O)cn5C4CC4)CC3)c3ccccc3)n2)cc1
quantity: growth
test.value: 16
//
compound: COc1cc(N2C(=O)[C@H](O)C2c2ccc(SC)cc2)cc(OC)c1OC (stereo partly drawn)
quantity: growth
test.value: 9.69
//
compound: CCCCCC(=O)OCC(=O)O[C@@H]1C[C@]2(C(C)C)O[C@@]1(C)[C@@H]1CC[C@@H](C)[C@H]1[C@@H]2OC(=O)/C=C/c1ccccc1
quantity: growth
test.value: 66.8
//
compound: O=C1c2cccc3cccc(c23)C(=O)N1N1C(=O)c2cccc3c(N4CCOCC4)ccc(c23)C1=O
quantity: growth
test.value: 106
//
compound: CC[C@@H](C(=O)[C@@H](C)[C@@H](O)[C@H](C)[C@@H]1O[C@@H]([C@@H](CC)C(=O)NCCc2ccc(F)cc2)CC[C@@H]1C)C1O[C@]2(C=CC(=O)[C@]3(CC[C@@](C)([C@H]4CC[C@](O)(CC)[C@H](C)O4)O3)O2)[C@H](C)C[C@@H]1C (stereo partly drawn)
quantity: growth
test.value: 7.59
//
compound: O=C(Nc1nc2ccc(F)cc2s1)c1cccnc1Nc1ccc(Cl)cc1
quantity: growth
test.value: 25
//
compound: Cc1ccccc1NC(=O)c1sc2nc(C)c(C(=O)/C=C/c3ccccc3)cc2c1N
quantity: growth
test.value: -24.7
//
compound: O=C1N(Cc2ccccc2Cl)c2ccccc2C12NN=C(c1cccc(Cl)c1)S2 (stereo not drawn)
quantity: growth
test.value: 30.5

* * *

System: NCI-H226 lung
experiment.notes: NCI-60 one-dose screen, 48 h (100 = growth as untreated, 0 = no growth, -100 = all killed)
study.conditions: 10 µM unless noted
Compounds without any hit were thinned out: in the full panel of roughly 83,000, 20% have a hit.
I would appreciate it if you labelled entries TRUE when growth is 80% or higher, otherwise FALSE.

compound: Cn1ccnc1C(=O)C(=O)Nc1ccc(CC(=O)Nc2ccccc2)cc1
system.under.test: NCI-H226 lung
cat: TRUE
//
compound: COc1cc(-c2nc(SCC(C)C)nc(Nc3cccc4ccccc34)c2C#N)cc(OC)c1OC
system.under.test: NCI-H226 lung
cat: TRUE
//
compound: Cn1cccc1C(=O)C1C(c2cccc([N+](=O)[O-])c2)C2C3CCCCC3CN2C12C(=O)Nc1ccc(Cl)cc12 (centres undefined)
system.under.test: NCI-H226 lung
cat: FALSE
//
compound: COc1ccc(/C(C)=C(/c2ccc(OCCCN(C)C)cc2)c2ccc(OC(=O)Cc3ccccc3)cc2)cc1
system.under.test: NCI-H226 lung
cat: TRUE
//
compound: CCOC(=O)/C=C1\S/C(=N\Nc2cc(=O)[nH]c3ccc(Cl)cc23)N(c2ccccc2)C1=O
system.under.test: NCI-H226 lung
cat: TRUE
//
compound: Cc1ccc(C(C(N)=O)C(C(N)=O)c2ccccc2)cc1 (centres undefined)
system.under.test: NCI-H226 lung
cat: TRUE
//
compound: O=C(NCCCCNC(=O)OCc1ccc2c(Cl)cc(Cl)c(O)c2n1)OCc1ccc2c(Cl)cc(Cl)c(O)c2n1
system.under.test: NCI-H226 lung
cat: FALSE
//
compound: S=C(Nc1ccc(-c2nc(N3CCOCC3)c3cccn3n2)cc1)Nc1cccnc1
system.under.test: NCI-H226 lung
cat: FALSE

* * *

System: MALME-3M melanoma
experiment.notes: NCI-60 one-dose screen, 48 h (100 = growth as untreated, 0 = no growth, -100 = all killed)
study.conditions: 10 µM unless noted
This is part of a sample that, as a whole, favours compounds with a hit. Of some 83,000 tested, about 20% had one in any assay.
Listed here are compounds together with their documented growth.

compound: CC(C)CCNC(=O)Cn1cccc(NC(=O)OCc2ccccc2)c1=O
growth (%): 104
//
compound: O=C1c2ccc3c4ccc5c6c(ccc(c7ccc(c2c37)C(=O)N1CCC[P+](c1ccccc1)(c1ccccc1)c1ccccc1)c64)C(=O)N(CCC[P+](c1ccccc1)(c1ccccc1)c1ccccc1)C5=O
growth (%): -27.8
//
compound: O=C1C(Cl)=C(Nc2ccc(O)cc2)C(=O)N1Cc1ccc(Cl)cc1
growth (%): 76.2
//
compound: CO[C@H]1/C=C(/C)CCC[C@H](C)[C@H](O)[C@@H](C)C(=O)C(C)(C)[C@@H](O)CC(=O)O[C@@H]1/C(C)=C/c1csc(C)n1
growth (%): 45.2
//
compound: Cn1ccc2c3c(ccc21)CC3=O
growth (%): 121
//
compound: CN1CCN(c2ccc(C(=O)Nc3cccc(C#Cc4cccc5[nH]nc(N)c45)c3)cc2C(F)(F)F)CC1
growth (%): -66.3
//
compound: Cc1cc(Cl)ccc1NC(=O)c1cc2ccccc2cc1O
growth (%): 7.3
//
compound: CC(=O)Cc1nsc(NC(=O)c2cc(-c3cc(Cl)cc(Cl)c3)oc2C)n1
growth (%): 111
//
compound: OCCCC1CCN(C(Cc2ccccc2)c2ccccc2)CC1 (centres undefined)
growth (%): 93.8
//
compound: CCCC(O)Cn1ncc(C(=O)OCC)c1NC(=O)NCc1ccccc1F (centres undefined)
growth (%): 98.9
//
compound: COc1cccc(/C=C/C(=O)c2cc3c(N)c(C(=O)Nc4ccccc4)sc3nc2C)c1
growth (%): 68.6
//
compound: CC(C)(C)c1cc(-c2nc3ccc(N4CCN(S(C)(=O)=O)CC4)cc3[nH]2)cc(C(C)(C)C)c1O
growth (%): 82.4
//
compound: CC(=O)Nc1nc2ccc(NS(=O)(=O)c3cccc4c(N(C)C)cccc34)cc2[nH]1
growth (%): 52.3
//
compound: CC(=O)OCc1nc(C#N)c(N(C)C)o1
growth (%): 97.8
//
compound: COc1cc(OC)cc(C2=C3CC[C@@H]4[C@H](CC[C@]5(C)C(=O)CC[C@@H]45)C3=CC3C(O)c4cccnc4N4C(=O)COC234)c1 (some centres undefined)
growth (%): 103
//
compound: C=CCn1c(SCC(=O)Nc2ccc(C(=O)/C=C/c3cc4cc(OC)ccc4nc3Cl)cc2)nnc1-c1ccc(Br)cc1
growth (%): 92.5
//
compound: O=C(N/N=C/c1ccc(F)cc1)c1ccc(C(F)(F)F)nc1Nc1cccc(C(F)(F)F)c1
growth (%): 2.96
//
compound: O=C(O)/C(=C\c1ccc(Cl)cc1)c1ccc(Cl)cc1
growth (%): 81.5
//
compound: Cc1ccccc1NC(=O)c1sc2nc(C)c(C(=O)/C=C/c3ccccc3)cc2c1N
growth (%): 59.7
